Species on record: Canis familiaris
protocol-text: repolarization to reach -60mV, in canine Purkinje Fibers at a concentration of 3.0 uM at 1000 ms (simulating normal heart rate)
Assay type: functional, Canis lupus familiaris, Purkinje fiber
parameter: APD (%)
Unit % implied. Number only.

Solved entries:
compound	test-result
CN(CCCOc1ccc(NS(C)(=O)=O)cc1)Cc1cnc2ccccc2n1	62
CN(Cc1ccc2ccccc2n1)C[C@@H](O)COc1ccc(NS(C)(=O)=O)cc1	70
CN(Cc1ccc2ccccc2n1)CC(O)COc1ccc(NS(C)(=O)=O)cc1 (centres undefined)	62

Documented APD of CN(Cc1ccc2ccccc2n1)CC(O)COc1ccc([N+](=O)[O-])cc1 (centres undefined) : 63

Summary for this compound, Cn1c(N2CCN(CC(O)COc3ccc(NS(C)(=O)=O)cc3)CC2)nc2ccccc21 (centres undefined) : APD is 83

For reference, reported APD for CN(Cc1ccc2ccccc2n1)CC(O)COc1ccc(-n2ccnc2)cc1 (centres undefined) stands at 39

Entry CN(CCCOc1ccc(NS(C)(=O)=O)cc1)Cc1ccc2ccccc2n1 , APD reported as 45

Measured APD, CN(Cc1ccc2ccccc2n1)C[C@H](O)COc1ccc(NS(C)(=O)=O)cc1 : 54

Value of APD reported for the compound CN(Cc1ccc2cc(NS(C)(=O)=O)ccc2n1)CC(O)COc1ccc(NS(C)(=O)=O)cc1 (centres undefined) is 66

Data point: CS(=O)(=O)Nc1ccc(OCC(O)CN2CCN(c3ccccn3)CC2)cc1 (centres undefined) ; APD = 53

Record CN(Cc1ccc2cc(Cl)ccc2n1)CC(O)COc1ccc(NS(C)(=O)=O)cc1 (centres undefined) . Reported APD: 65

The compound identified as Cc1nc2ccccc2nc1CN(C)CC(O)COc1ccc(-n2ccnc2)cc1 (centres undefined) registered its APD at 69

For CN(Cc1ccc2cc(F)ccc2n1)CC(O)COc1ccc(NS(C)(=O)=O)cc1 (centres undefined) the compound record lists APD as 55

For record CN(Cc1nc2ccccc2n1C)CC(O)COc1ccc(NS(C)(=O)=O)cc1 (centres undefined) the listed APD is 19

The reported APD of the compound COc1ccc2nc(CN(C)CC(O)COc3ccc(NS(C)(=O)=O)cc3)ccc2c1 (centres undefined) was 54

###

Species: Canis familiaris
protocol-text: repolarization to reach -60mV, in canine Purkinje Fibers at a concentration of 3.0 uM at 1000 ms (simulating normal heart rate)
Format: functional, Canis lupus familiaris, Purkinje fiber
parameter: APD (%)
Return type: number; implicit unit %.

Some compounds with known APD results, for comparison:
compound	value-unit	APD
CC(C)N(Cc1ccc2ccccc2n1)CC(O)COc1ccc(NS(C)(=O)=O)cc1 (centres undefined)	%	49
Cc1nc2ccccc2nc1CN(C)CC(O)COc1ccc(NS(C)(=O)=O)cc1 (centres undefined)	%	17
CN(Cc1ccc2ccccc2n1)CC(O)COc1ccc(-c2nn[nH]n2)cc1 (centres undefined)	%	11

From here, focus on the item given below.
So, CN(Cc1nc2ccccc2[nH]1)CC(O)COc1ccc(NS(C)(=O)=O)cc1 (centres undefined) ? Its APD was 14
